MEASURED TARGET: human glucagon receptor (human, UniProt P47871 26-477)
Sequence (P47871 26-477): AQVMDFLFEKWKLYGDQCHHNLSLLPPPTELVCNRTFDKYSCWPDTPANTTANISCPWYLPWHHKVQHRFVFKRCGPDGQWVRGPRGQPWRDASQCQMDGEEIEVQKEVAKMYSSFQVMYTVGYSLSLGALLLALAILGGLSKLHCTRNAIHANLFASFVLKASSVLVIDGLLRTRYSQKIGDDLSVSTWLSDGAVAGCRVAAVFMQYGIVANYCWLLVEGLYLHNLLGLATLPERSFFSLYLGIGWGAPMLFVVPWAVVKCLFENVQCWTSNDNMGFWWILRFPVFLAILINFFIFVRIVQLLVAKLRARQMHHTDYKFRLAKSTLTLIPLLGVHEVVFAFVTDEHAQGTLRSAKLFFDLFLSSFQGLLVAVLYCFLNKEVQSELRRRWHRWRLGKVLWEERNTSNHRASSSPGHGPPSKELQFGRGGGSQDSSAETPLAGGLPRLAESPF
TEST DETAILS: cell-based or functional assay
*1 amine or outer side, *2 acyl side, *3 side chain or, on linkers, in order; H or OH if unused. Where no end group is shown, it is not given here. Side-chain parts run from the residue outwards. [ ]: non-standard residue; d: D form. The star is where a group is joined. αMePhe(2-F) = C[C@](N)(Cc1ccccc1F)C(=O)O; γGlu = O=C(O)[C@H](CCC(=O)[*:2])N[*:1]; αMeY = C[C@](N)(Cc1ccc(O)cc1)C(=O)O; 4Pal = N[C@@H](Cc1ccncc1)C(=O)O; αMeL = CC(C)C[C@](C)(N)C(=O)O; Lauroyl = CCCCCCCCCCCC(=O)*; Orn = NCCC[C@H](N)C(=O)O; AEEA = NCCOCCOCC(=O)O; Aib = CC(C)(N)C(=O)O
REPORTED ENDPOINT: cAMP EC50 (1.0% HSA)

In: Please report the recorded cAMP EC50 (1.0% HSA) for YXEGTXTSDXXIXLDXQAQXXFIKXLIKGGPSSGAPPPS (Y-Aib-EGT-αMeF(2F)-TSD-4Pal-Aib-I-αMeL-LD-Orn-QAQ-Aib-Orn-FIK((2-[2-(2-Amino-ethoxy)-ethoxy]-acetyl)3-(γ-Glu)-CO-(CH2)12-CO2H)-αMeY-LIK((2-[2-(2-Amino-ethoxy)-ethoxy]-acetyl)3-(γ-Glu)-CO-(CH2)12-CO2H)GGPSSGAPPPS-NH2) [Example 476] .
Out: > 9.95 µM

In: I'd like to know its cAMP EC50 (1.0% HSA). The binder in question is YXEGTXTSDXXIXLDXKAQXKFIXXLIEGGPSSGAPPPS (Y-Aib-EGT-αMeF(2F)-TSD-4Pal-Aib-I-αMeL-LD-Orn-K((2-[2-(2-Amino-ethoxy)-ethoxy]-acetyl)3-(γ-Glu)-CO-(CH2)10-CH3)AQ-Aib-K((2-[2-(2-Amino-ethoxy)-ethoxy]-acetyl)3-(γ-Glu)-CO-(CH2)10-CH3)FI-(D-Glu)-αMeY-LIEGGPSSGAPPPS-NH2) [Example 422]
Out: > 9.95 µM

In: Need cAMP EC50 (1.0% HSA) of YXEGTXTSDXSIXLDXQAQXXFIKXLIKGGPSSGAPPPS (Y-Aib-EGT-αMeF(2F)-TSD-hY-SI-αMeL-LD-Orn-QAQ-Aib-Orn-FIK((2-[2-(2-Amino-ethoxy)-ethoxy]-acetyl)2-(γ-Glu)-CO-(CH2)12-CO2H)-αMeY-LIK((2-[2-(2-Amino-ethoxy)-ethoxy]-acetyl)2-(γ-Glu)-CO-(CH2)12-CO2H)GGPSSGAPPPS-NH2) [Example 491] , thanks.
Out: > 9.95 µM

In: Requested read-out: cAMP EC50 (1.0% HSA). Entry: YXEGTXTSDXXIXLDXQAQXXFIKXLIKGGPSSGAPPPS (Y-Aib-EGT-αMeF(2F)-TSD-4Pal-Aib-I-αMeL-LD-Orn-QAQ-Aib-Orn-FIK(PEG6-(γ-Glu)-CO-(CH2)12-CO2H)-αMeY-LIK(PEG6-(γ-Glu)-CO-(CH2)12-CO2H)GGPSSGAPPPS-NH2) [Example 466]
Out: > 10.1 µM

In: Would you kindly share the measured cAMP EC50 (1.0% HSA) for Y[Aib]EGT[αMePhe(2-F)]TSDK([AEEA-AEEA-γGlu-Lauroyl])[Aib]I[αMeL]LD[Orn]K([AEEA-AEEA-γGlu-Lauroyl])AQ[Aib][4Pal]FI[dE][αMeY]LIEGGPSSGAPPPS-NH2 [Example 415] ?
Out: > 9.95 µM

In: What measured cAMP EC50 (1.0% HSA) goes with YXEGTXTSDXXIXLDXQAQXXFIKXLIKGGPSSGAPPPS (Y-Aib-EGT-αMeF(2F)-TSD-4Pal-Aib-I-αMeL-LD-Orn-QAQ-Aib-Orn-FIK((2-[2-(2-Amino-ethoxy)-ethoxy]-acetyl)2-(γ-Glu)2-CO-(CH2)12-CO2H)-αMeY-LIK((2-[2-(2-Amino-ethoxy)-ethoxy]-acetyl)2-(γ-Glu)2-CO-(CH2)12-CO2H)GGPSSGAPPPS-NH2) [Example 474] ?
Out: > 9.95 µM

In: Dear colleague, I am looking for the recorded cAMP EC50 (1.0% HSA) of the following binder: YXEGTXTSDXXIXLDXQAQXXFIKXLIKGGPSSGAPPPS (Y-Aib-EGT-αMeF(2F)-TSD-4Pal-Aib-I-αMeL-LD-Orn-QAQ-Aib-Orn-FIK(Ahx-(2-[2-(2-Amino-ethoxy)-ethoxy]-acetyl)-(γ-Glu)-(10-(4-carboxyphenoxy)decanoyl))-αMeY-LIK(Ahx-(2-[2-(2-Amino-ethoxy)-ethoxy]-acetyl)-(γ-Glu)-(10-(4-carboxyphenoxy)decanoyl))GGPSSGAPPPS-NH2) [Example 455]
Out: > 9.95 µM

In: Returns the measured cAMP EC50 (1.0% HSA) for the input binder. Input: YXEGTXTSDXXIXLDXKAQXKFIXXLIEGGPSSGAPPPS (Y-Aib-EGT-αMeF(2F)-TSD-4Pal-Aib-I-αMeL-LD-Orn-K((2-[2-(2-Amino-ethoxy)-ethoxy]-acetyl)-(γ-Glu)-(10-(4-carboxyphenoxy)decanoyl))AQ-Aib-K((2-[2-(2-Amino-ethoxy)-ethoxy]-acetyl)-(γ-Glu)-(10-(4-carboxyphenoxy)decanoyl))FI-(D-Glu)-αMeY-LIEGGPSSGAPPPS-NH2) [Example 360]
Out: > 9.95 µM

In: Can you share its cAMP EC50 (1.0% HSA)? I mean this binder: YXEGTXTSDXXIXLDXIAQXXFIKXLIKGGPSSGAPPPS (Y-Aib-EGT-αMeF(2F)-TSD-4Pal-Aib-I-αMeL-LD-Orn-IAQ-Aib-Orn-FIK((2-[2-(2-Amino-ethoxy)-ethoxy]-acetyl)2-(γ-Glu)-(10-(4-carboxyphenoxy)decanoyl))-αMeY-LIK((2-[2-(2-Amino-ethoxy)-ethoxy]-acetyl)2-(γ-Glu)-(10-(4-carboxyphenoxy)decanoyl))GGPSSGAPPPS-NH2) [Example 354]
Out: > 9.95 µM

In: Return reported cAMP EC50 (1.0% HSA); argument: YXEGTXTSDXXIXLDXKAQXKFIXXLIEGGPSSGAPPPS (Y-Aib-EGT-αMeF(2F)-TSD-4Pal-Aib-I-αMeL-LD-Orn-K((2-[2-(2-Amino-ethoxy)-ethoxy]-acetyl)-(γ-Glu)-CO-(CH2)10-CH3)AQ-Aib-K((2-[2-(2-Amino-ethoxy)-ethoxy]-acetyl)-(γ-Glu)-CO-(CH2)10-CH3)FI-(D-Glu)-αMeY-LIEGGPSSGAPPPS-NH2) [Example 426]
Out: > 9.95 µM

In: Name the reported cAMP EC50 (1.0% HSA) value associated with the binder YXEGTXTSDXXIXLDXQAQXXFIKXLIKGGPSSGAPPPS (Y-Aib-EGT-αMeF(2F)-TSD-4Pal-Aib-I-αMeL-LD-Orn-QAQ-Aib-Orn-FIK((2-[2-(2-Amino-ethoxy)-ethoxy]-acetyl)-(γ-Glu)-(2-[2-(2-Amino-ethoxy)-ethoxy]-acetyl)-(γ-Glu)-CO-(CH2)12-CO2H)-αMeY-LIK((2-[2-(2-Amino-ethoxy)-ethoxy]-acetyl)-(γ-Glu)-(2-[2-(2-Amino-ethoxy)-ethoxy]-acetyl)-(γ-Glu)-CO-(CH2)12-CO2H)GGPSSGAPPPS-NH2) [Example 484]
Out: > 9.95 µM

In: Give the measured cAMP EC50 (1.0% HSA) of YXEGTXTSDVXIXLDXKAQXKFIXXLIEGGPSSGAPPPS (Y-Aib-EGT-αMeF(2F)-TSDV-Aib-I-αMeL-LD-Orn-K((2-[2-(2-Amino-ethoxy)-ethoxy]-acetyl)-(γ-Glu)-CO-(CH2)12-CO2H)AQ-Aib-K((2-[2-(2-Amino-ethoxy)-ethoxy]-acetyl)-(γ-Glu)-CO-(CH2)12-CO2H)FI-(D-Glu)-αMeY-LIEGGPSSGAPPPS-NH2) [Example 398] .
Out: > 9.95 µM

Values compiled from patent US20230265151A1.
